Entries and their growth
Tested on: K-562 leukemia
Assay notes: NCI-60 one-dose screen, 48 h (100 = growth as untreated, 0 = no growth, -100 = all killed)
Experimental setup: 10 µM unless noted
Compounds without any hit were thinned out: in the full panel of roughly 83,000, 20% have a hit.

>  <Chem smiles>
O=C(NNc1nc2cc(F)c(F)cc2n2cccc12)c1ncccn1

>  <growth (%)>
20.8

$$$$
>  <Chem smiles>
Cc1ccc(-c2csc(N/N=C/c3nc4ccccc4n3C3CC3)n2)cc1

>  <growth (%)>
-55.8

$$$$
>  <Chem smiles>
CCc1ccc(NC(=O)N[C@@H](Cc2cc(F)cc(F)c2)C(=O)N[C@@H]2C(=O)N3CCC[C@H]3C(=O)N3CCO[C@H](C)[C@H]3C(=O)N[C@@H](CO)C(=O)N3C[C@H](C)C[C@H]3C(=O)O[C@H]2C)c(F)c1

>  <growth (%)>
21.5

$$$$
>  <Chem smiles>
COc1ccc(-c2nc3cc(Cl)c(Cl)cc3n2CC(=O)N=Nc2c(O)[nH]c3ccc(Cl)cc23)cc1

>  <growth (%)>
32.1

$$$$
>  <Chem smiles>
CC(C)N=C(N/C(N)=N/c1nc2ccccc2s1)NC(C)C

>  <growth (%)>
23.1

$$$$
>  <Chem smiles>
Cc1ccc(NC(=O)c2cc(/C=C/C(=O)NO)cc(C(F)(F)F)c2)cc1Nc1nccc(-c2cccnc2)n1

>  <growth (%)>
5.9

$$$$
>  <Chem smiles>
N#C/C(=C\c1ccc(Cl)cc1Cl)C(N)=O

>  <growth (%)>
80.3

$$$$
>  <Chem smiles>
CNC(=O)c1cc(Oc2ccc3nc(NC(=O)c4ccc(CN5CCN(C)CC5)c(C(F)(F)F)c4)sc3c2)ccn1

>  <growth (%)>
11.7

$$$$

----------
Test system: DU-145 prostate
Assay notes: NCI-60 one-dose screen, 48 h (100 = growth as untreated, 0 = no growth, -100 = all killed)
Experimental setup: 10 µM unless noted
About 83,000 compounds went through this panel and 20% of them were active in at least one assay; those are over-represented in the sample as a whole. The source made the active and inactive calls. Rule for the calls: active = growth percent below 10; inactive = the rest.

>  <Compound>
O=c1[nH]c2cc(Cl)ccc2n1C1CCN(c2ccc3nnc(Cl)n3n2)CC1

>  <growth>
99.8% (inactive)

$$$$
>  <Compound>
COc1cc(C2=NN(C(C)=O)C(c3ccc(N4CCOCC4)cc3)C2)cc(OC)c1OC (stereo not drawn)

>  <growth>
107% (inactive)

$$$$
>  <Compound>
CCOC(=O)Nc1cccc(-n2cnc3cc(-c4ccc(O)cc4)ccc32)c1

>  <growth>
19.7% (inactive)

$$$$
>  <Compound>
C=CCn1c(SCC(=O)Nc2ccc(OC)cc2)nnc1-c1ccc(Cl)cc1

>  <growth>
99.5% (inactive)

$$$$
>  <Compound>
Cc1ccc(-n2cc(/C=C/C(=O)c3ccc(S(C)(=O)=O)cc3)c(-c3ccc(S(C)(=O)=O)cc3)n2)cc1

>  <growth>
104% (inactive)

$$$$
>  <Compound>
CC(=O)Nc1ccc(C)c(Nc2cc(-c3ccc(-n4cccn4)cc3)[nH]n2)c1

>  <growth>
81.5% (inactive)

$$$$
>  <Compound>
CCc1ccc(NC(=O)N[C@@H](Cc2cccc(F)c2)C(=O)N[C@@H]2C(=O)N3CCC[C@H]3C(=O)N3CCCC[C@H]3C(=O)N[C@@H](CO)C(=O)N3C[C@H](C)C[C@H]3C(=O)O[C@H]2C)c(F)c1

>  <growth>
26.9% (inactive)

$$$$
>  <Compound>
CCn1c2ccc(/C=N/NS(=O)(=O)CCN(C)C)cc2c2cc(/C=N/NS(=O)(=O)CCN(C)C)ccc21

>  <growth>
105% (inactive)

$$$$

Every entry's value here was drawn from PubChem BioAssay (NCI).
